target: Quinolone-resistant E. coli gyrase (Escherichia coli, UniProt P0AES4+P0AES6); conditions: read-out: IC50, E. coli quinolone-resistant gyrase
reported.metric: IC50

{"columns": ["sample.smiles", "reported.metric", "meas.value"],
 "data": [
  ["Cc1c(-c2cc(F)c(N)cc2F)ccn2c(=O)c(C(=O)O)cc(C3CC3)c12", "IC50", "1.3 to 1.5 µM"]
]}

---

biological target: S. aureus DNA gyrase (Staphylococcus aureus, UniProt P0A0K8+P20831); test: biochemical
pIC50: −log10 of the molar value.

{"columns": ["sample.smiles", "pIC50"],
 "data": [
  ["Cc1c(-c2cc(F)c(N)cc2F)ccn2c(=O)c(C(=O)O)cc(C3CC3)c12", 5.70]
]}

---

pIC50: −log10 of the molar value.
Record: pIC50 reported on human Topo I (Homo sapiens, UniProt P11387).
Sequence (P11387 whole entry): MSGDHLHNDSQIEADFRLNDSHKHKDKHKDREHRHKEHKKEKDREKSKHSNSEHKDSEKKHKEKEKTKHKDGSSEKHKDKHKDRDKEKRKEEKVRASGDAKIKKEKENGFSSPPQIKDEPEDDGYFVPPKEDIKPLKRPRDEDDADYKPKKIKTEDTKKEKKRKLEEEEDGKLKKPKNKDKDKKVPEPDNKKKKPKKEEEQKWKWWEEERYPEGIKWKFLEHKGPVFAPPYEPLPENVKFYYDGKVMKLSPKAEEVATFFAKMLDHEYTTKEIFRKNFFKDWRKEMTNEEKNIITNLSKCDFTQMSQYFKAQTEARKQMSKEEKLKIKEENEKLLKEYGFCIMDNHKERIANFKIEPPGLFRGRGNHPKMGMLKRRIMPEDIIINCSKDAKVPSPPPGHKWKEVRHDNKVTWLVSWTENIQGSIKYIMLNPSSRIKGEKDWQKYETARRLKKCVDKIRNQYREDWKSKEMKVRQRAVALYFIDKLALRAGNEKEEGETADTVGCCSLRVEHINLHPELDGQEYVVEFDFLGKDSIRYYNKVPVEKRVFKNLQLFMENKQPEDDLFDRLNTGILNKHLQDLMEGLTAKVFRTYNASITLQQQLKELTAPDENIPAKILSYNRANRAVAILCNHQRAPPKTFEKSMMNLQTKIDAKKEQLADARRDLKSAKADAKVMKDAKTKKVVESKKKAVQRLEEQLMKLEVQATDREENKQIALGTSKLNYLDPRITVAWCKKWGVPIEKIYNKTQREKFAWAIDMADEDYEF

{"columns": ["sample.smiles", "pIC50"],
 "data": [
  ["Cc1c(-c2cc(F)c(N)cc2F)ccn2c(=O)c(C(=O)O)cc(C3CC3)c12", "< 4.00"],
  ["O=C(O)c1cn(C2CC2)c2cc(N3CCNCC3)c(F)cc2c1=O", "< 4.00"]
]}

---

target: E. coli Topo IV (Escherichia coli, UniProt P0AFI2+P20083); experiment: biochemical
Sequence (P0AFI2 whole entry): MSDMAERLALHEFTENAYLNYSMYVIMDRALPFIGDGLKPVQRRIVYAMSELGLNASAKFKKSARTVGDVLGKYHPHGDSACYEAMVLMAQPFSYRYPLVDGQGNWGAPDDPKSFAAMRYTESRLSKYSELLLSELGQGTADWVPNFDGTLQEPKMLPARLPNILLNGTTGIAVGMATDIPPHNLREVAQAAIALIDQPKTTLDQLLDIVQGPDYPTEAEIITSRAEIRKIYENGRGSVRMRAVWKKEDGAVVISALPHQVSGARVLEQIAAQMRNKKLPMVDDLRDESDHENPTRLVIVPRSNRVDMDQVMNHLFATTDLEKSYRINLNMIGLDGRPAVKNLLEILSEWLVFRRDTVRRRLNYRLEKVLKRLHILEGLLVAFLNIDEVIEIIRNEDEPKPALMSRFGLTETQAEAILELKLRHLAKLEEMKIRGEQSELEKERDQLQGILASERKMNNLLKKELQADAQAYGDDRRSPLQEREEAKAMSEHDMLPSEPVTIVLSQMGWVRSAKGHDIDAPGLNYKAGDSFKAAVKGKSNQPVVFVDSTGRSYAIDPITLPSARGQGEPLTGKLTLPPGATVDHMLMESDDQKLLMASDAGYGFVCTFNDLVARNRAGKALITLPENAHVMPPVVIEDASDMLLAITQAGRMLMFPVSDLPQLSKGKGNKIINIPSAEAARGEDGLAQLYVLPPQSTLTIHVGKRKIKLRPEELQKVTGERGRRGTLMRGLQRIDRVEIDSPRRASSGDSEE
Sequence (P20083 whole entry): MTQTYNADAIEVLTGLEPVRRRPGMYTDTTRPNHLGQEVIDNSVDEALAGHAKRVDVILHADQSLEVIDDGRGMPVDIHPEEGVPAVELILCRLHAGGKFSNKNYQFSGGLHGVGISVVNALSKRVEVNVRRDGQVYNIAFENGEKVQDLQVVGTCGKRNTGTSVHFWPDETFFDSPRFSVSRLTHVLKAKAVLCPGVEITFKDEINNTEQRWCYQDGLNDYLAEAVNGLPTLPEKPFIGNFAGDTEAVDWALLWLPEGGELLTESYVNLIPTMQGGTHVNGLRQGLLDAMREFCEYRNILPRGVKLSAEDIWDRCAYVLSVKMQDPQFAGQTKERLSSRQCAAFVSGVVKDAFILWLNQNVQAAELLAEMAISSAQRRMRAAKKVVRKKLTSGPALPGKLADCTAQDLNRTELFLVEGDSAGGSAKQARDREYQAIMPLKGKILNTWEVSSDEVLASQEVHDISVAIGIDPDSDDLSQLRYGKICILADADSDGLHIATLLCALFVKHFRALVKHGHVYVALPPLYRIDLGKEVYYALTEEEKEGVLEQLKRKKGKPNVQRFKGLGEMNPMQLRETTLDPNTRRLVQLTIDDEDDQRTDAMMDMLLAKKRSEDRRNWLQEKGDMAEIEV
reported.metric: IC50

{"columns": ["molecule", "target.under.test", "reported.metric", "meas.value"],
 "data": [
  ["Cc1c(-c2cc(F)c(N)cc2F)ccn2c(=O)c(C(=O)O)cc(C3CC3)c12 [GC-072]", "E. coli Topo IV (Escherichia coli, UniProt P0AFI2+P20083)", "IC50", "4.22 to 8.45 µM"]
]}

---

target: E. coli DNA gyrase (Escherichia coli, UniProt P0AES4+P0AES6); assay: biochemical
pIC50: −log10 of the molar value.
reported.metric: pIC50

{"columns": ["sample.smiles", "target.under.test", "meas.value"],
 "data": [
  ["Cc1c(-c2cc(F)c(N)cc2F)ccn2c(=O)c(C(=O)O)cc(C3CC3)c12", "E. coli DNA gyrase (Escherichia coli, UniProt P0AES4+P0AES6)", "5.82 to 6.74"]
]}
